- target.or.system: UniProt P07550
- Sequence (P07550 whole entry): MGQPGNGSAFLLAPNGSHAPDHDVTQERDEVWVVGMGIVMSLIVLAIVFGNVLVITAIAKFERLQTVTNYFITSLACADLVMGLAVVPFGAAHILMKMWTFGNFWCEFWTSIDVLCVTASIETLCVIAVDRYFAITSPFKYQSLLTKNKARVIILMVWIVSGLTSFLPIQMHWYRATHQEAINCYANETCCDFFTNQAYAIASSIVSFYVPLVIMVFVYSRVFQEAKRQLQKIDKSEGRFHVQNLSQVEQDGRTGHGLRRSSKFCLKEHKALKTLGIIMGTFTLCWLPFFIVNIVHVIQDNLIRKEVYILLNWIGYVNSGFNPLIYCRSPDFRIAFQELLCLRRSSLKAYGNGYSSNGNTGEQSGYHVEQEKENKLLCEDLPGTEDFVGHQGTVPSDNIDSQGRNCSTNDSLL

{"compound": "CCOc1cc(C(=O)N[C@H]2C[C@H](NC(=O)COc3cccc([C@](O)(C(=O)OCC4CCN(Cc5ccccc5)CC4)c4ccccc4)c3)C2)ccc1CNC[C@H](O)c1ccc(O)c2[nH]c(=O)ccc12", "target.or.system": "UniProt P07550", "IC50": "0.3 to 3 nM"}
{"compound": "O=C(COc1cccc([C@](O)(C(=O)OCC2CCN(Cc3ccccc3)CC2)c2ccccc2)c1)N[C@H]1C[C@H](NC(=O)c2ccc(CNC[C@H](O)c3ccc(O)c4[nH]c(=O)ccc34)c(F)c2F)C1", "target.or.system": "UniProt P07550", "IC50": "< 0.3 nM"}
{"compound": "O=C(OCC1CCN(Cc2ccccc2)CC1)C(O)(c1cccc(OCCCCCNC[C@H](O)c2ccc(O)c3[nH]c(=O)ccc23)c1)c1ccccc1Cl (some centres unmarked)", "target.or.system": "UniProt P07550", "IC50": "< 0.3 nM"}
{"compound": "CN1CCC(COC(=O)[C@@](O)(c2ccccc2)c2cccc(OCCCCCNC[C@H](O)c3ccc(O)c4[nH]c(=O)ccc34)c2)CC1", "target.or.system": "UniProt P07550", "IC50": "< 0.3 nM"}
{"compound": "O=C(NCCOc1cccc([C@](O)(C(=O)OCC2CCN(Cc3ccccc3)CC2)c2ccccc2)c1)c1ccc(CCNC[C@H](O)c2ccc(O)c3[nH]c(=O)ccc23)cc1", "target.or.system": "UniProt P07550", "IC50": "< 0.3 nM"}
